- experimental.target: ZmDRIK1 (DROUGHT RESPONSIVE INACTIVE KINASE 1), kinase domain (Zea mays)
- Construct: gene ZEAMMB73_Zm00001d028770; ZmDRIK1-KD R187-S514 (kinase domain)
- Sequence (C0P4K9 187-514): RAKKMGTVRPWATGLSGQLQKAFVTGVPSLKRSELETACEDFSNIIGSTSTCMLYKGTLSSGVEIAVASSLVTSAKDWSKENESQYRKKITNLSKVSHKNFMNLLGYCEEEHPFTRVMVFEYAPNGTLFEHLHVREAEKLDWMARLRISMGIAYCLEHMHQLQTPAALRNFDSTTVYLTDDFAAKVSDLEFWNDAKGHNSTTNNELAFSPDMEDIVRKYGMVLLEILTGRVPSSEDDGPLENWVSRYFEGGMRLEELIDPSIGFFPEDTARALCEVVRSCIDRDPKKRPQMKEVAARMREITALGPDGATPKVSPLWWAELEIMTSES
- test.method.notes: biochemical
- condition.notes: read-out: dTm B, sheet ZmDRIK1-R187-S514;; DSF, Boltzmann fit, 0.1% DMSO
Reported ΔTm at 10 µM values follow for various molecules
// return numeric value only (unit: °C, not printed)

Record excerpt, results attached:
CSc1cccc(Nc2ncc3cc(-c4c(Cl)cccc4Cl)c(=O)n(C)c3n2)c1 :: -1.36
CS(=O)(=O)N1CCc2c(-c3cnc(N)nc3)nc(N3CCOCC3)nc21 :: -0.711
Cc1cnc(Nc2ccc(OCCN3CCCC3)cc2)nc1Nc1cccc(S(=O)(=O)NC(C)(C)C)c1 [TG101348 (SAR302503)] :: -0.804
COc1ccc2c(c1)c(C1=C(c3c[nH]c4ccccc34)C(=O)NC1=O)cn2CCCN(C)C :: -0.633
O=S(=O)(NCCNC/C=C/c1ccc(Br)cc1)c1cccc2cnccc12 [H 89 2HCl] :: -0.703
O=C1Nc2ccc(I)cc2/C1=C/c1cc(Br)c(O)c(Br)c1 :: -0.178

// ΔTm at 10 µM lookup, molecule = "CCCCOc1c(C(=O)c2c(F)cc(C)cc2F)c[nH]c2nncc1-2" , result: -0.676
